Where do these numbers come from? They come from PubChem BioAssay (NCI).

- Test system: MALME-3M melanoma
- TEST_DESCRIPTION: NCI-60 one-dose screen, 48 h (100 = growth as untreated, 0 = no growth, -100 = all killed)
- CONDITION_NOTES: 10 µM unless noted
About 83,000 compounds went through this panel and 20% of them were active in at least one assay; those are over-represented in the sample as a whole.
growth values by entry
ASSAY_METRIC: growth (%)

>>> print(df.to_string())
                                   compound  numeric_value
0  Cc1cccc(/C=C/C(=O)Nc2ncc(Cc3cccc(C)c3)s2)c1           33.6
1  O=C(Cn1c(-c2ccccc2)nc2cc(Cl)c(Cl)cc21)N=Nc1c(O)[nH]c2ccc(Cl)cc12           81.6
2  CC(C)c1ccc(NCc2cn(-c3ccc(C(=O)O)cc3)nc2-c2cc(C(F)(F)F)cc(C(F)(F)F)c2)cc1             71
3  Cc1cc(C(NC(=O)CCCCCNc2cccc3c2C(=O)N(C2CCC(=O)NC2=O)C3=O)c2ccc3c(c2)OC(F)(F)O3)c(O)c2ncccc12 (stereo not given)           84.5
4  CC(=O)N1C(=S)NC(=O)C1CC(C)C (stereo not given)            102
